Recorded OD450 for the following binders
# measured-on: T1, IL-11 protein (UniProt P20809 22-199, limits assumed)
# T1 construct: also called IL-11 antigen
# T1 sequence (looked up): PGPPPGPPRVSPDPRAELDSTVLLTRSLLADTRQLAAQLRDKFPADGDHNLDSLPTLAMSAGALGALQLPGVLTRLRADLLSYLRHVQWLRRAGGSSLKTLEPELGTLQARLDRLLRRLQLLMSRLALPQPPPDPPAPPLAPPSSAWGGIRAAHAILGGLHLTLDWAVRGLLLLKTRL
# protocol-text: ELISA, monoclonal hybridoma supernatant on IL-11
In your answer, state the number alone without any accompanying words.

{"binder": "3-15D5-6A1 (antibody, human IgG1, kappa, V domains shown) VH: EVKLLESGGGLVQPGGSLKLSCAASGFDFRRYWMSWVRQAPGKGLEWIGQINPDSSMINYTPSLKDKFIISRDNAKNTLYLQMSEVRSEDTALYYCATYGHHATDSWGQGTSVTVSS VL: DIVLTQSPASLAVSLGQRATISCRASESVDSYGNSFMHWYQQKPGQPPKLLIYRASNLESGIPARFSGSGSRTDFTLTINPVEADDVATYYCQQSNEDPFTFGSGTKLEIKR", "number": 1.51}

Problem: Answer with the recorded OD450 for the binder listed here: 3-7C9-1A6 (antibody, human IgG1, kappa, V domains shown) VH: QVQLKQSGPGLVQPSQSLSITCTVSGFSLTNYGVHWVRQSPGKGLEWLGAIWRGGSTDYNAAFMSRLSITKDNSKSQVFFKMNSLQPDDTAIYYCAKNLYGPAAMDYWGQGTSVTVSS VL: DIQMNQSPSSLSASLGDTITITCHANQNIYVWLSWYQQKPGNIPKLLIYEASNLHTGVPSRFSGSGSGTGFTLTISSLQPEDIATYYCQQGQSYPYTFGGGTKLEIKR
Result: 1.6

Problem: Answer with the recorded OD450 for the binder listed here: 3-5B2-2G4 (antibody, human IgG1, kappa, V domains shown) VH: QIQLVQSGPELKKPGETVKISCKASGYTFTNYGMNWVKQAPGKGLKWMGWINTNTGEPTYAEEIKGRFAFSLETSASTAYLQINNLKNEDTATYFCSREGIYGMDSWGQGTSVTVSS VL: SIVMTQTPKFLLVSAGDRVTITCKASQSVSNDVVWYRQKPGQSPKLLIYYASNRYIGVPDRFTGSGYGTDFTFTISTVQAEDLAVYFCQQDYYSPWTFGGGTKLEIKR
Result: 1.65
